# assay_explanation: Performance test: solubility
# Type: physicochemical
# condition_label: organic solvent or mixture; in DMSO
attribute_measured: solubility

Answer with the recorded solubility of O=C1CCC(N2Cc3c(NC(=O)CCCCCCNC(=O)c4cc[nH]c(=S)c4)cccc3C2=O)C(=O)N1 (stereo not shown) [A3] only.
> 523 mg/mL

----------
# assay_explanation: Performance test: cytotoxicity
# Assay type: cell-based
pIC50: −log10 of the molar value.
attribute_measured: pIC50

Answer with the recorded pIC50 of O=C1CCC(N2Cc3c(NC(=O)CCCCCCNC(=O)c4cc[nH]c(=S)c4)cccc3C2=O)C(=O)N1 (stereo not shown) [A3] only.
< 3.70
